- target.or.test.system: T1, murine PRLR (Biacore antigen) (murine, UniProt Q08501 20-229, limits assumed)
- T1 construct: also called muPRLR
- T1 sequence (looked up): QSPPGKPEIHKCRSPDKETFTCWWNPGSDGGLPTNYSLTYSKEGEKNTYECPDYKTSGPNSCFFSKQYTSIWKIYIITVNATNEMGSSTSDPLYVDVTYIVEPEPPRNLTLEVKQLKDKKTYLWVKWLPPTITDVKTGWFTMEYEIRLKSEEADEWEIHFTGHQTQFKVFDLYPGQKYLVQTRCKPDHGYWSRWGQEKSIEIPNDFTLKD
- method: SPR Biacore
Overview of reported pKd across a group of binders:
// pKd here means minus log10 of the molar concentration (mol/L)

binder="Ab20 (antibody, human IgG1, kappa, V domains shown, humanized from Ab6; G1; also called Ab1 HC.1a and Ab1 LC.2) VH: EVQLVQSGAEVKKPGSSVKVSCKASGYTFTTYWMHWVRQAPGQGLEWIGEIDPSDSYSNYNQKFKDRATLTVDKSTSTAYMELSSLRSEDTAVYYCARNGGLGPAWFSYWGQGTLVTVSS VL: EIVMTQSPATLSVSPGERATLSCKASQYVGTAVAWYQQKPGQAPRLLIYSASNRYTGIPARFSGSGSGTEFTLTISSLQSEDFAVYYCQQYSSYPWTFGGGTKVEIKR" measure=pKd assay_value=6.21

The measured pKd associated with Ab6 (antibody, V domains shown, murine monoclonal, isotype G1; also called murine Ab6) VH: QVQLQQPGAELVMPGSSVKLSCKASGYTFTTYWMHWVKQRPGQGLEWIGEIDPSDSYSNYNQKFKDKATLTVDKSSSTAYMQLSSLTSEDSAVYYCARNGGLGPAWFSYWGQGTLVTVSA VL: DIVMTQSQKFMSTTVGDRVSITCKASQYVGTAVAWYQQKPGQSPKLLIYSASNRYTGVPDRFTDSGSGTDFTLTISNLQSEDLADYFCQQYSSYPWTFGGGTKLEIK reads 6.20

Noted for Ab39 (antibody, human IgG1, kappa, V domains shown, humanized from Ab7; G1; also called Ab4 HC.1a and Ab4 LC.1a) VH: EVQLVQSGAEVKKPGSSVKVSCKASGYTFTSYWIHWVRQAPGQGLEWIGEIDPSDSYTNYNQKFKGRATLTVDKSSSTAYMELSSLRSEDTAVYYCARSFFTNWFAYWGQGTLVTVSS VL: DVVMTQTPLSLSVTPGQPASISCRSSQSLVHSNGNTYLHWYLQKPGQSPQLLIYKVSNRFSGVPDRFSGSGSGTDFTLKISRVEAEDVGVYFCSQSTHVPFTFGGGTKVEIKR : its pKd reads 6.13
